Just for reference, patent US11447504B2 is where these values come from.

# Experimental System: MCL-1 (Homo sapiens (Human), UniProt Q07820, K194A/K197A/R201A)
# Sequence (Q07820 whole entry K194A/K197A/R201A, looked up): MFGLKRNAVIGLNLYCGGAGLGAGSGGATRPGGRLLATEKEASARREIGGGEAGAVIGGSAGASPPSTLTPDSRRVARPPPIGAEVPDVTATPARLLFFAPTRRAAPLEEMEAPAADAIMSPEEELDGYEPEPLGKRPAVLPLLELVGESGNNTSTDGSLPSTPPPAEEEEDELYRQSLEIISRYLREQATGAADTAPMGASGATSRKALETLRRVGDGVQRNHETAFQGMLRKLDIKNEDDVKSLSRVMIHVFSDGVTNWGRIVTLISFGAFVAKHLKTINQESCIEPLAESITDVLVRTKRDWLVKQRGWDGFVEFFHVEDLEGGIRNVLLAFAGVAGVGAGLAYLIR
# Test Details: Protein-protein interaction assay MCL-1/Noxa BH3 peptide (MCL-1 Assay, TR-FRET)
# Measurement Parameters: read-out: MCL-1 Assay IC50 (median)
We begin with a simple list: items and their reported IC50.
Recorded Endpoint: IC50 (nM)

compound="Cc1c2c(nn1C)COCC1CC1Cn1c(C(=O)O)c(CCCOc3cccc4ccccc34)c3ccc(Cl)c-2c31 (single isomer, unassigned; stereoisomer 2) [Example 66]" number=1.7
compound="Cc1c2c(nn1C)N(C)CCCCCn1c(C(=O)O)c(CCCOc3cccc4ccccc34)c3ccc(Cl)c-2c31 (single isomer, unassigned) [Example 73]" number=16
compound="Cc1c2c(nn1C)N(C)CCCCCn1c(C(=O)O)c(CCCOc3cccc4ccccc34)c3ccc(Cl)c-2c31 (single isomer, unassigned) [Example 72]" number=0.96
compound="Cc1c2c(nn1C)CN(C)CCCCn1c(C(=O)O)c(CCCOc3cccc4cc(F)ccc34)c3ccc(Cl)c-2c31 (racemic) [Example 30]" number=0.92
compound="CCc1c2c(nn1C)N(C)CCCCCn1c(C(=O)O)c(CCCOc3cccc4cc(F)ccc34)c3ccc(Cl)c-2c31 (racemic)" number=1.1
compound="Cc1c2c(nn1CCCN1CCN(C)CC1)COCCCCn1c(C(=O)O)c(CCCOc3cccc4ccccc34)c3ccc(Cl)c-2c31 (single isomer, unassigned; enantiomer 2) [Example 50]" number=15
